The entries below are paired with their reported Ki.
target: bovine trypsin (bovine, UniProt P00760 24-246); experiment: trypsin inhibition, BApNA substrate
Sequence (P00760 24-246): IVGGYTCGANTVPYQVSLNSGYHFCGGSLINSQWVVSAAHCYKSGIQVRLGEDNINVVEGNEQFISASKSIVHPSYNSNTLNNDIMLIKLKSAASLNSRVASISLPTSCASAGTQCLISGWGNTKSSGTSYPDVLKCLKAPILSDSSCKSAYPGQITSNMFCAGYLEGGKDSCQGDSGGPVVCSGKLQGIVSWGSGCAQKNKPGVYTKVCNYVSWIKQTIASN
Bridge positions count the residues as written; N and C are the ends. Ends that are not written are not given here.

>  <binder>
RCTKSIPPQCH (disulfide 2-10 (inferred)) [BT63]

>  <Ki, nM>
20

$$$$
>  <binder>
CGRATKSIPPIAFC (disulfide 1-14 (inferred)) [BT11]

>  <Ki, nM>
470

$$$$
>  <binder>
CGRETKSIPPICF (disulfide 1-12 (inferred)) [BT58]

>  <Ki, nM>
30

$$$$
